Source of measurements: paper PMC3988166

Assay: Caco-2 cell permeability assay
Details: human, Caco-2
READOUT NAME: Papp A→B at 150 min, 200 µM
Just so you know, I need the unit written after the number.

Task item: Fill in: Papp A→B at 150 min, 200 µM of CC(C)C[C@H](NC(=O)[C@H](Cc1ccccc1)NC(=O)CNC(=O)CNC(=O)[C@H](Cc1ccc(O)cc1)NC(=O)CCC(=O)N[C@@H]1O[C@H](CO)[C@H](O)[C@H](O)[C@H]1O)C(N)=O is ___
Reply: 0.798 ×10⁻⁶ cm/s

Task item: Fill in: Papp A→B at 150 min, 200 µM of CC(C)C[C@H](NC(=O)[C@H](Cc1ccccc1)NC(=O)CNC(=O)CNC(=O)[C@H](Cc1ccc(O)cc1)NC(=O)CCC(=O)N[C@@H]1O[C@H](CO)[C@@H](O[C@@H]2O[C@H](CO)[C@H](O[C@H]3O[C@H](CO)[C@H](O)[C@H](O)[C@H]3O)[C@H](O)[C@H]2O)[C@H](O)[C@H]1O)C(N)=O is ___
Reply: 0.44 ×10⁻⁶ cm/s

Task item: Fill in: Papp A→B at 150 min, 200 µM of CC(C)NCC(O)COc1cccc2ccccc12 (stereo not drawn) [propanolol, reference compound] is ___
Reply: 134 ×10⁻⁶ cm/s
